Recorded values, source the supplement of paper PMC6555819.

Recorded PBM binding z-score for the following sequences
Test system: PPARg:RXRa IVT, anti-PPARg (NR concentration 270 nM, RXRa partner concentration 90 nM)
Assay: PBM binding z-score (relative to random genomic background probes); higher = stronger binding; sequences stand for … in GC…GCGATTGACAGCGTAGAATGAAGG

sequenceText | testedSystem | PBM binding z-score
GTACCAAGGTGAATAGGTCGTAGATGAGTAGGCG | PPARg:RXRa IVT, anti-PPARg (NR concentration 270 nM, RXRa partner concentration 90 nM) | 2.84
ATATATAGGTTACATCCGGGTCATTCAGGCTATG | PPARg:RXRa IVT, anti-PPARg (NR concentration 270 nM, RXRa partner concentration 90 nM) | 7.26
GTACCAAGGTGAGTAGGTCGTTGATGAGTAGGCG | PPARg:RXRa IVT, anti-PPARg (NR concentration 270 nM, RXRa partner concentration 90 nM) | 2.68
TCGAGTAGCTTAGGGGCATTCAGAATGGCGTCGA | PPARg:RXRa IVT, anti-PPARg (NR concentration 270 nM, RXRa partner concentration 90 nM) | -0.404
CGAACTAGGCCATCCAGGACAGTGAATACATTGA | PPARg:RXRa IVT, anti-PPARg (NR concentration 270 nM, RXRa partner concentration 90 nM) | 5.51
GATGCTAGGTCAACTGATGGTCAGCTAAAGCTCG | PPARg:RXRa IVT, anti-PPARg (NR concentration 270 nM, RXRa partner concentration 90 nM) | 3.75
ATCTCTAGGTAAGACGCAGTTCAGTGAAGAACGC | PPARg:RXRa IVT, anti-PPARg (NR concentration 270 nM, RXRa partner concentration 90 nM) | 0.781
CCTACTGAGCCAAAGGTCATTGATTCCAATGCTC | PPARg:RXRa IVT, anti-PPARg (NR concentration 270 nM, RXRa partner concentration 90 nM) | 3.91
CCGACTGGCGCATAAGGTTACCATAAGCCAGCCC | PPARg:RXRa IVT, anti-PPARg (NR concentration 270 nM, RXRa partner concentration 90 nM) | -0.617
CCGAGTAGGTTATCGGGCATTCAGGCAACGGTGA | PPARg:RXRa IVT, anti-PPARg (NR concentration 270 nM, RXRa partner concentration 90 nM) | 2.72
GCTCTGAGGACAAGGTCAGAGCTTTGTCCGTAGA | PPARg:RXRa IVT, anti-PPARg (NR concentration 270 nM, RXRa partner concentration 90 nM) | 1.09
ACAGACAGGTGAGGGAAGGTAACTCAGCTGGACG | PPARg:RXRa IVT, anti-PPARg (NR concentration 270 nM, RXRa partner concentration 90 nM) | 0.747

---

System: RXRa DBDmut IVT, anti-RXR (DBD mutation: RXRa K156A/R161A, NR concentration 90 nM)
Assay: PBM binding z-score (relative to random genomic background probes); higher = stronger binding; sequences stand for … in GC…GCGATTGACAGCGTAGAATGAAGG
Recorded PBM binding z-score for the following sequences

sequenceText | PBM binding z-score
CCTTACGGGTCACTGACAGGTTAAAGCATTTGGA | 1.51
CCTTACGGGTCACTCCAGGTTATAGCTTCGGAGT | 1.65
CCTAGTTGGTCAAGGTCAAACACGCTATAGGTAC | 2.71
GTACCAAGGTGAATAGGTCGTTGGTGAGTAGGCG | -0.312
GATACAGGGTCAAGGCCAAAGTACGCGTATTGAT | 2.45
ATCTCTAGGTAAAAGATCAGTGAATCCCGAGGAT | -0.342
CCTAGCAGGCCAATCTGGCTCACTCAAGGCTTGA | -0.298
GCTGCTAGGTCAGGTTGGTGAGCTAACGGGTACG | 0.361
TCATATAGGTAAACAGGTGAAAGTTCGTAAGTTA | 1.62
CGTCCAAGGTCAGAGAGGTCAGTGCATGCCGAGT | 3.49
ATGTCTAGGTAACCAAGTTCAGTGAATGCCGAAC | 0.268
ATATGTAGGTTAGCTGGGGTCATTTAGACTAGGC | 2.15

---

Test system: PPARg:RXRa IVT, anti-PPARg (NR concentration 270 nM, RXRa partner concentration 90 nM)
Experiment: PBM binding z-score (relative to random genomic background probes); higher = stronger binding; sequences stand for … in GC…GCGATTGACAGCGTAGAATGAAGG
Dear colleague, classification is by PBM binding z-score, with ranges listed here: I (below 1), II (1 to below 4), III (4 or more)

sequenceText | category
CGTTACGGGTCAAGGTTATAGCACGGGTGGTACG | II
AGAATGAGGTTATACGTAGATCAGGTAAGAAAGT | II
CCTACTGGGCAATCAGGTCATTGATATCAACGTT | II
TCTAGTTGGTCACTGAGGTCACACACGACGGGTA | III
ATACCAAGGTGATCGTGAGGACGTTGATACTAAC | II
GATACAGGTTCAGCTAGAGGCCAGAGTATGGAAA | I
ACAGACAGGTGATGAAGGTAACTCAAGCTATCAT | I
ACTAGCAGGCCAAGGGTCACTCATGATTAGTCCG | II
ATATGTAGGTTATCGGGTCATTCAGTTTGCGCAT | III
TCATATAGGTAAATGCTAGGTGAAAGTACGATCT | II
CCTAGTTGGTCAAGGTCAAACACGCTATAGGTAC | II
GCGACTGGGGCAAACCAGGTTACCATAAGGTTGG | II
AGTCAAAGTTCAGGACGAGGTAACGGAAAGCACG | II
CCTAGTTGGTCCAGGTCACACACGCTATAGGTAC | II
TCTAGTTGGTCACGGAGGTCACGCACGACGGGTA | III
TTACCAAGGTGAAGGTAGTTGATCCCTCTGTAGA | II
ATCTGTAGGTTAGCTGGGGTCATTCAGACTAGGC | II
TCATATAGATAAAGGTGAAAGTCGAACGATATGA | II
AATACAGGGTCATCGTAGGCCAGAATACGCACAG | III
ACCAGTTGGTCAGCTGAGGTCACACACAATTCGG | II
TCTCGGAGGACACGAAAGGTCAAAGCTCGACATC | II
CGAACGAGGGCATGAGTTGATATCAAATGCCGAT | II
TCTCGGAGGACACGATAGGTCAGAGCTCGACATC | I
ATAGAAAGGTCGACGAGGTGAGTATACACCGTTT | II
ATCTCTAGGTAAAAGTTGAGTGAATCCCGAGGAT | II
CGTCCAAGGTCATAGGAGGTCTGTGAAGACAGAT | II
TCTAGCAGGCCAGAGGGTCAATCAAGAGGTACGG | I
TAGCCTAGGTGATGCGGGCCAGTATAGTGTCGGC | I
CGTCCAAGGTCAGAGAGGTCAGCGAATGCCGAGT | II
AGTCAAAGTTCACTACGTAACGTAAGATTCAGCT | II
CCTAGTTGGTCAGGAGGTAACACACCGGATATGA | II
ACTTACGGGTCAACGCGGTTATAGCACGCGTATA | III
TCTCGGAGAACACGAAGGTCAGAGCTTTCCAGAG | I
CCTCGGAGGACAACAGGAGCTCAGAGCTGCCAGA | I
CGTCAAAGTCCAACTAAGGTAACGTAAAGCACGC | I
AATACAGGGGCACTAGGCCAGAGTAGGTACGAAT | II
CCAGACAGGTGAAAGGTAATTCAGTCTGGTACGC | II
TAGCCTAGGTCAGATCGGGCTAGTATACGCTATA | II
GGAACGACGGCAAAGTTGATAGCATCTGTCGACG | I
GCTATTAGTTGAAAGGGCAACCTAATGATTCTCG | I
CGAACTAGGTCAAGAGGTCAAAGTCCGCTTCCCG | III
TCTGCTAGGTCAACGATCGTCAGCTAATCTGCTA | III
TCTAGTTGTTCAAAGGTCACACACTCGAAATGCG | III
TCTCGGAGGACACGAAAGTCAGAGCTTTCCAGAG | I
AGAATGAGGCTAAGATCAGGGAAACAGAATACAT | I
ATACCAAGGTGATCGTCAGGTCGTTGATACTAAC | II
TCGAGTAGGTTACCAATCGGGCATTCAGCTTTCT | II
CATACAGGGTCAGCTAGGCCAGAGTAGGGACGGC | II
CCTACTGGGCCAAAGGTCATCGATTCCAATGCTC | III
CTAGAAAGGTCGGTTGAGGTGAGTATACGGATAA | II
